# Test system: HCV replicon 1B
# ASSAY_COMMENT: microbe, parasite or virus in culture
# Type: cell-based, Hepatitis C virus (HCV)
# EXPERIMENTAL_SETUP: Hepatitis C virus, HCV replicon 1B; Replicon Assay B
QUANTITY_NAME: pIC50
Worth noting: pIC50 values are minus log10 of concentrations stated in mol/L.

Fill blank: measured pIC50 of the compound COC(=O)N[C@H](C(=O)N1CCC[C@H]1c1ncc(-c2cc(F)c3c(c2)OC(c2ccc(C4CC4)s2)n2c-3cc3cc(-c4cnc([C@@H]5C[C@H]6C[C@H]6N5C(=O)[C@@H](NC(=O)OC)C5CCOCC5)[nH]4)ccc32)[nH]1)C(C)C (stereo partly shown) is ____.
11.81

----------
# Tested on: HCV replicon 1AY93H
# ASSAY_COMMENT: microbe, parasite or virus in culture
# Type: cell-based, Hepatitis C virus (HCV)
# EXPERIMENTAL_SETUP: read-out: 1A Y93H IC50; replicon 1AY93H; Replicon Assay A
# reported IC50; entries follow
Dear colleague, please return just the value in nM, with no unit written.

Find the recorded IC50 belonging to CCc1ccc(C2Oc3cc(-c4cnc([C@@H]5CCCN5C(=O)[C@@H](NC(=O)OC)C(C)C)[nH]4)cc(F)c3-c3cc4cc(-c5cnc([C@@H]6CCCN6C(=O)C(NC(=O)OC)C6CCOC(C)(C)C6)[nH]5)ccc4n32)s1 (single isomer, unassigned) [Compound 148] and report it.
10.2

Quick one: IC50 for CCc1ccc(C2Oc3cc(-c4cnc([C@@H]5CCCN5C(=O)[C@@H](NC(=O)OC)C(C)C)[nH]4)cc(F)c3-c3cc4cc(-c5cnc([C@@H]6CCCN6C(=O)C(NC(=O)OC)C6CCOC(C)(C)C6)[nH]5)ccc4n32)s1 (single isomer, unassigned) [Compound 146] ?
0.57

IC50 for COC(=O)N[C@H](C(=O)N1CCC[C@H]1c1ncc(-c2cc(F)c3c(c2)OC(c2ccc(OC)s2)n2c-3cc3cc(-c4cnc([C@@H]5CCCN5C(=O)[C@@H](NC(=O)OC)C(C)C)[nH]4)ccc32)[nH]1)C(C)C (single isomer, unassigned) [Compound 20] ?
0.014

Endpoint output: IC50 of COC(=O)NC(C(=O)N1CCC[C@H]1c1ncc(-c2ccc3c(c2)cc2n3C(c3ccc(C(C)C)s3)Oc3cc(-c4cnc([C@@H]5CCCN5C(=O)[C@@H](NC(=O)OC)C(C)C)[nH]4)cc(F)c3-2)[nH]1)C1CCOC(C)(C)C1 (single isomer, unassigned) [Compound 238] . Value?
3.12

----------
# System: HCV replicon 1AQ30D
# ASSAY_COMMENT: microbe, parasite or virus in culture
# Type: cell-based, Hepatitis C virus (HCV)
# EXPERIMENTAL_SETUP: Hepatitis C virus, read-out: 1A Q30D IC50 (nM), replicon 1AQ30D; Replicon Assay B
QUANTITY_NAME: IC50 (nM)
# number only, unit nM dropped from output

Illustrative cases are given below, each with its answer.
1) CCc1ccc(C2Oc3cc(-c4cnc([C@@H]5CCCN5C(=O)C(NC(=O)OC)C5C[C@@H](C)O[C@@H](C)C5)[nH]4)cc(F)c3-c3cc4cc(-c5cnc([C@@H]6CCCN6C(=O)[C@@H](NC(=O)OC)C(C)C)[nH]5)ccc4n32)s1 (single isomer, unassigned) [Compound 156] : 0.019
2) COC(=O)NC(C(=O)N1CCC[C@H]1c1ncc(-c2ccc3c(c2)cc2n3C(c3ccc(C4CC4)s3)Oc3cc(-c4cnc([C@@H]5CCCN5C(=O)[C@@H](NC(=O)OC)C(C)C)[nH]4)cc(F)c3-2)[nH]1)C(C)(C)F (single isomer, unassigned) [Compound 75] : 0.27
3) COC(=O)N[C@H](C(=O)N1CCC[C@@H]1c1ncc(-c2cc(F)c3c(c2)OC(c2ccc(C(C)C)s2)n2c-3cc3cc(-c4c[nH]c([C@@H]5C[C@@H]6C[C@@H]6N5C(=O)[C@H](NC(=O)OC)C5C[C@@H](C)O[C@@H](C)C5)n4)ccc32)[nH]1)C(C)C (stereo partly shown) [Compound 284] : 0.021
4) COC(=O)N[C@H](C(=O)N1CCC[C@H]1c1ncc(-c2cc(F)c3c(c2)OC(c2ccc(C(C)C)s2)n2c-3cc3cc(-c4cnc([C@@H]5CCCN5C(=O)[C@@H](NC(=O)OC)C5CCOCC5)[nH]4)ccc32)[nH]1)C(C)C (single isomer, unassigned) [Compound 345] : 0.0235
5) COC(=O)NC(C(=O)N1CCC[C@H]1c1ncc(-c2ccc3c(c2)cc2n3C(c3ccc(C4CC4)s3)Oc3cc(-c4cnc([C@@H]5CCCN5C(=O)[C@@H](NC(=O)OC)C(C)C)[nH]4)cc(F)c3-2)[nH]1)C1C[C@@H](C)O[C@@H](C)C1 (stereo partly shown) [Compound 208] : 0.043
6) COC(=O)N[C@H](C(=O)N1CCC[C@H]1c1ncc(-c2cc(F)c3c(c2)OC(c2ccc(CCF)s2)n2c-3cc3cc(-c4cnc([C@@H]5CCCN5C(=O)[C@@H](NC(=O)OC)C(C)C)[nH]4)ccc32)[nH]1)C(C)C (single isomer, unassigned) [Compound 44] : 0.54

// switching to the query compound
Entry under review: COC(=O)N[C@H](C(=O)N1CCC[C@H]1c1ncc(-c2cc(F)c3c(c2)OC(c2ccc(C#CC4CC4)s2)n2c-3cc3cc(-c4cnc([C@@H]5CCCN5C(=O)[C@@H](NC(=O)OC)C(C)C)[nH]4)ccc32)[nH]1)C(C)C (single isomer, unassigned) [Compound 86] . Reported IC50?
0.11

These entries and their values trace back to patent US20160257697A1.
